From: the supplement of paper PMC9170038

Tested on: MS2 coat protein
Test: apparent KD of MS2 coat protein; designed switch direction (-1 OFF switch, 1 ON switch): -1; higher = weaker reporter binding
Details: Eterna round: R95; input ligand: FMN 200 uM
Assay metric: apparent KD of MS2 coat protein (µM)
Note: unit µM is implicit; provide only the numeric part.

apparent KD of MS2 coat protein recorded for this sequence, GAUUAUGCGAGCUUUAGGGACAUGAGGAUCACCCAUGUUCGUCUUAUUGGUCUAAGUGCACUGACAUACCUAAAUCU [JMF 84] (puzzle: Sensor v3, turn-off variant 1) , is 0.0202

apparent KD of MS2 coat protein recorded for this sequence, CGUAUCUUUCACGUGAGUAGUGGGUGCAACAGGUGGGUUACAUGAGGAUCACCCAUGUACUCACUUGCUCGUCUUAU [Grok-var2-06] (puzzle: Sensor v3, turn-off variant 2) , is 0.038

apparent KD of MS2 coat protein recorded for this sequence, UCAUAACAUGAGGAUCACCCAUGUGAGGAUAUGAUACUAUGUACUUCGGUACAUAGUAUCAGAAGGCGCAUACU [Brourd's Ex1-3: 11 (nt 68 G)] (puzzle: Exclusion 1) , is 0.115

apparent KD of MS2 coat protein recorded for this sequence, GGAAGACAUGAGGAUCACCCAUGUAAGGAUAUCGGAGGUAAGGGAGGAAGGAGAUAGGCGAGAAGGUACAGGUG [JR_Exclu1_Sub094] (puzzle: Exclusion 1) , is 0.0472

apparent KD of MS2 coat protein recorded for this sequence, ACUAGCUUUUUGCAUAGUAGGUUUGGUGCUUCGUAUGCAACAUGAGGAUCACCCAUGUAUUACUGAUGUCGUCGUUU [JR_SV3TOV2_Sub092] (puzzle: Sensor v3, turn-off variant 2) , is 0.0262
